# credit: ChEMBL document CHEMBL5046226

test: Cytotoxicity against human HepG2.2.15 cells assessed as reduction in cell viability by CellTiter-Glo reagent based assay; format: toxicity, HepG2 2.2.15
I'd appreciate it if you could supply CC50 values for the items below.
Write down the numeric answer in µM and omit the unit.

Ask: Item under review: O=C1CC(Oc2ncc(F)cn2)CN1c1cnn2c1CN(C(=O)Nc1cc(F)c(F)c(F)c1)C(C1CC1)C2 (configuration not stated) . Reported CC50?
Reply: 96.2

Ask: Item under review: O=C1c2ccccc2CN1c1cnn2c1CN(C(=O)Nc1cc(F)c(F)c(F)c1)C(C1CC1)C2 (configuration not stated) . Reported CC50?
Reply: 38.5

Ask: Item under review: O=C1CC(c2ccccc2)CN1c1cnn2c1CN(C(=O)Nc1cc(F)c(F)c(F)c1)C(C1CC1)C2 (configuration not stated) . Reported CC50?
Reply: 12.8

Ask: Item under review: O=C1OC(c2ccc(F)cc2)CN1c1cnn2c1CN(C(=O)Nc1cc(F)c(F)c(F)c1)C(C1CC1)C2 (configuration not stated) . Reported CC50?
Reply: 3.56

Ask: Item under review: O=C1OC(c2ccccc2)CN1c1cnn2c1CN(C(=O)Nc1cc(F)c(F)c(F)c1)C(C1CC1)C2 (configuration not stated) . Reported CC50?
Reply: 7.41

Ask: Item under review: O=C1NC(c2ccccc2)CN1c1cnn2c1CN(C(=O)Nc1cc(F)c(F)c(F)c1)C(C1CC1)C2 (configuration not stated) . Reported CC50?
Reply: 38.5

Ask: Item under review: O=C(Nc1cc(F)c(F)c(F)c1)N1Cc2c(-c3ccc(F)cc3)cnn2CC1C1CC1 (configuration not stated) . Reported CC50?
Reply: 38.5

###

I'd appreciate it if you could supply Cmax values for the items below.
assay: Cmax in ICR mouse at 50 mg/kg, po; assay type: ADME, organism-based; parameters: route oral, dose 50 mg/kg; conditions: in vivo
Write down the numeric answer in ng/mL and omit the unit.

Ask: Item under review: C[C@H]1Cn2ncc(N3CC(c4ccccc4)CC3=O)c2CN1C(=O)Nc1cc(F)c(F)c(F)c1 (stereo partly specified) . Reported Cmax?
Reply: 3130

Ask: Item under review: N#CC1CC(=O)N(c2cnn3c2CN(C(=O)Nc2cc(F)c(F)c(F)c2)C(C2CC2)C3)C1 (stereo unspecified) . Reported Cmax?
Reply: 6400

Ask: Item under review: O=C1CC(Oc2ncccn2)CN1c1cnn2c1CN(C(=O)Nc1cc(F)c(F)c(F)c1)C(C1CC1)C2 (stereo unspecified) . Reported Cmax?
Reply: 5270

Ask: Item under review: O=C1CC(c2ncccn2)CN1c1cnn2c1CN(C(=O)Nc1cc(F)c(F)c(F)c1)C(C1CC1)C2 (stereo unspecified) . Reported Cmax?
Reply: 5980

Ask: Item under review: Cc1nc(C2CC(=O)N(c3cnn4c3CN(C(=O)Nc3cc(F)c(F)c(F)c3)C(C3CC3)C4)C2)no1 (stereo unspecified) . Reported Cmax?
Reply: 3860

Ask: Item under review: O=C1CC(c2ncco2)CN1c1cnn2c1CN(C(=O)Nc1cc(F)c(F)c(F)c1)C(C1CC1)C2 (stereo unspecified) . Reported Cmax?
Reply: 8740

###

assay: Cytotoxicity against human HepG2.2.15 cells assessed as reduction in cell viability by CellTiter-Glo reagent based assay; type: toxicity, HepG2 2.2.15
QUANTITY_MEASURED: CC50 (µM)
Write down the numeric answer in µM and omit the unit.

Ask: Item under review: O=C1CC(c2ccccn2)CN1c1cnn2c1CN(C(=O)Nc1cc(F)c(F)c(F)c1)C(C1CC1)C2 (stereo unspecified) . Reported CC50?
Reply: 96.2

Ask: Item under review: O=C(Nc1cc(F)c(F)c(F)c1)N1Cc2c(-c3ccc(F)cc3F)cnn2CC1C1CC1 (stereo unspecified) . Reported CC50?
Reply: 32

Ask: Item under review: Cc1cnc(C2CC(=O)N(c3cnn4c3CN(C(=O)Nc3cc(F)c(F)c(F)c3)C(C3CC3)C4)C2)s1 (stereo unspecified) . Reported CC50?
Reply: 96.2

Ask: Item under review: O=C1CC(C(F)(F)F)CN1c1cnn2c1CN(C(=O)Nc1cc(F)c(F)c(F)c1)C(C1CC1)C2 (stereo unspecified) . Reported CC50?
Reply: 115

###

I'd appreciate it if you could supply CC50 values for the items below.
test: Cytotoxicity against human HepG2.2.15 cells assessed as reduction in cell viability by CellTiter-Glo reagent based assay; format: toxicity, HepG2 2.2.15
Write down the numeric answer in µM and omit the unit.

Ask: Item under review: O=C1CC(c2nccs2)CN1c1cnn2c1CN(C(=O)Nc1cc(F)c(F)c(F)c1)C(C1CC1)C2 (stereo not drawn) . Reported CC50?
Reply: 115

Ask: Item under review: O=C1CC(c2ccc(F)cc2)CN1c1cnn2c1CN(C(=O)Nc1cc(F)c(F)c(F)c1)C(C1CC1)C2 (stereo not drawn) . Reported CC50?
Reply: 32

Ask: Item under review: C[C@H]1Cn2ncc(N3CC(c4ccccc4)CC3=O)c2CN1C(=O)Nc1cc(F)c(F)c(F)c1 (stereo partly drawn) . Reported CC50?
Reply: 12.8

Ask: Item under review: O=C1CC(c2cnc(C(F)(F)F)s2)CN1c1cnn2c1CN(C(=O)Nc1cc(F)c(F)c(F)c1)C(C1CC1)C2 (stereo not drawn) . Reported CC50?
Reply: 38.5

Ask: Item under review: O=C1CC(c2cnco2)CN1c1cnn2c1CN(C(=O)Nc1cc(F)c(F)c(F)c1)C(C1CC1)C2 (stereo not drawn) . Reported CC50?
Reply: 139

Ask: Item under review: CC1CN(C(=O)Nc2cc(F)c(F)c(F)c2)Cc2c(N3CC(C#N)CC3=O)cnn21 (stereo not drawn) . Reported CC50?
Reply: 115

###

assay: Tmax in ICR mouse at 50 mg/kg, po; type: ADME, organism-based; conditions: in vivo
I'd appreciate it if you could supply Tmax values for the items below.
Write down the numeric answer in min and omit the unit.

Ask: Item under review: N#CC1CC(=O)N(c2cnn3c2CN(C(=O)Nc2cc(F)c(F)c(F)c2)C(C2CC2)C3)C1 (stereo unspecified) . Reported Tmax?
Reply: 15

Ask: Item under review: O=C1CC(c2ncco2)CN1c1cnn2c1CN(C(=O)Nc1cc(F)c(F)c(F)c1)C(C1CC1)C2 (stereo unspecified) . Reported Tmax?
Reply: 15

Ask: Item under review: O=C1CC(Oc2ncccn2)CN1c1cnn2c1CN(C(=O)Nc1cc(F)c(F)c(F)c1)C(C1CC1)C2 (stereo unspecified) . Reported Tmax?
Reply: 15

Ask: Item under review: Cc1nc(C2CC(=O)N(c3cnn4c3CN(C(=O)Nc3cc(F)c(F)c(F)c3)C(C3CC3)C4)C2)no1 (stereo unspecified) . Reported Tmax?
Reply: 19.8

Ask: Item under review: C[C@H]1Cn2ncc(N3CC(c4ccccc4)CC3=O)c2CN1C(=O)Nc1cc(F)c(F)c(F)c1 (stereo partly specified) . Reported Tmax?
Reply: 15

Ask: Item under review: O=C1CC(c2ncccn2)CN1c1cnn2c1CN(C(=O)Nc1cc(F)c(F)c(F)c1)C(C1CC1)C2 (stereo unspecified) . Reported Tmax?
Reply: 15

###

test: Half life in ICR mouse at 50 mg/kg, po; type: ADME, organism-based; conditions: in vivo
Field 'label' (enum: 1 / -1). Set to 1 when half-life is strictly under 2 h; else -1.

Ask: Please let me know if O=C1CC(Oc2ncccn2)CN1c1cnn2c1CN(C(=O)Nc1cc(F)c(F)c(F)c1)C(C1CC1)C2 (stereo unspecified) shows half-life below 2 h.
Reply: 1

Ask: Please let me know if Cc1nc(C2CC(=O)N(c3cnn4c3CN(C(=O)Nc3cc(F)c(F)c(F)c3)C(C3CC3)C4)C2)no1 (stereo unspecified) shows half-life below 2 h.
Reply: -1

Ask: Please let me know if C[C@H]1Cn2ncc(N3CC(c4ccccc4)CC3=O)c2CN1C(=O)Nc1cc(F)c(F)c(F)c1 (stereo partly specified) shows half-life below 2 h.
Reply: -1

Ask: Please let me know if O=C1CC(c2ncccn2)CN1c1cnn2c1CN(C(=O)Nc1cc(F)c(F)c(F)c1)C(C1CC1)C2 (stereo unspecified) shows half-life below 2 h.
Reply: 1

Ask: Please let me know if N#CC1CC(=O)N(c2cnn3c2CN(C(=O)Nc2cc(F)c(F)c(F)c2)C(C2CC2)C3)C1 (stereo unspecified) shows half-life below 2 h.
Reply: -1

Ask: Please let me know if O=C1CC(c2ncco2)CN1c1cnn2c1CN(C(=O)Nc1cc(F)c(F)c(F)c1)C(C1CC1)C2 (stereo unspecified) shows half-life below 2 h.
Reply: -1

###

assay: Cytotoxicity against human HepG2.2.15 cells assessed as reduction in cell viability by CellTiter-Glo reagent based assay; assay type: toxicity, HepG2 2.2.15
QUANTITY_MEASURED: CC50 (µM)
Write down the numeric answer in µM and omit the unit.

Ask: Item under review: O=C1CC(c2ccc(F)cn2)CN1c1cnn2c1CN(C(=O)Nc1cc(F)c(F)c(F)c1)C(C1CC1)C2 (centres undefined) . Reported CC50?
Reply: 38.5

Ask: Item under review: CC1(C)CC(=O)N(c2cnn3c2CN(C(=O)Nc2cc(F)c(F)c(F)c2)C(C2CC2)C3)C1 (centres undefined) . Reported CC50?
Reply: 115

Ask: Item under review: O=C1CC(c2ncc(F)cn2)CN1c1cnn2c1CN(C(=O)Nc1cc(F)c(F)c(F)c1)C(C1CC1)C2 (centres undefined) . Reported CC50?
Reply: 115

Ask: Item under review: O=C1CC(c2ccccc2)CN1c1cnn2c1CN(C(=O)Nc1cc(F)c(F)c(F)c1)C1CCCCC12 (centres undefined) . Reported CC50?
Reply: 21.4
